Quick reference for abundance fitness among some variants
B1: Glucocorticoid receptor, residues 419 to 494; numbered along this chain, P04150 (parent)
chain: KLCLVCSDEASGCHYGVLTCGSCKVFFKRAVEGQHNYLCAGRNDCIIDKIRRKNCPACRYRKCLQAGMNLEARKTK

variants of: B1; test: abundance fitness (aPCA) (normalised: wild type 0, dead -1); higher = more abundant; growth selection in yeast, the domain comes from the species named; conditions: Homo sapiens

{"Record Sequence": "KLCLVCSDEASGCHYGVLTCGSCTVFFKRAVEGQHNYLCAGRNDCIIDKIRRKNCPACRYRKCLQAGMNLEARKTK", "abundance fitness": -0.096}
{"Record Sequence": "KLCLVCSDEASGCHYGVLTCRSCKVFFKRAVEGQHNYLCAGRNDCIIDKIRRKNCPACRYRKCLQAGMNLEARKTK", "abundance fitness": -0.086}
{"Record Sequence": "KLCLVCSDEAPGCHYGVLTCGSCKVFFKRAVEGQHNYLCAGRNDCIIDKIRRKNCPACRYRKCLQAGMNLEARKTK", "abundance fitness": -0.096}
{"Record Sequence": "KLCLVCSDEASGCHYGVLTCGSCKVFFKRAVEGQHNILCAGRNDCIIDKIRRKNCPACRYRKCLQAGMNLEARKTK", "abundance fitness": -0.08}
{"Record Sequence": "KLCLVCSDEASGCHYGVLTCGSCKVFFKRAVEGQHNYLCAGRVDCIIDKIRRKNCPACRYRKCLQAGMNLEARKTK", "abundance fitness": -0.285}
{"Record Sequence": "KLCLVCSDEASGCHYGVLTCGSCKVFFKRAVEGQHNYLCAGRNDCIIDKIRRKNCPACRYRKCLQAGMNLEARITK", "abundance fitness": 0.027}
{"Record Sequence": "KLCLVCSDEASGCHYGVLTCGSCKVFFKRAVEGQHNYLCAGRNDCIIDKIRRKNCPAARYRKCLQAGMNLEARKTK", "abundance fitness": -0.935}
{"Record Sequence": "KLCLVCSDEASGCHMGVLTCGSCKVFFKRAVEGQHNYLCAGRNDCIIDKIRRKNCPACRYRKCLQAGMNLEARKTK", "abundance fitness": -0.009}
{"Record Sequence": "KLCLVCSDEASGCHYGVLTCGSCKVFFKRAVEGQHNYLCAGLNDCIIDKIRRKNCPACRYRKCLQAGMNLEARKTK", "abundance fitness": 0.012}
{"Record Sequence": "KLCLVCSDEASGCHYGVLTCGSCKVFFFRAVEGQHNYLCAGRNDCIIDKIRRKNCPACRYRKCLQAGMNLEARKTK", "abundance fitness": -0.086}
{"Record Sequence": "KLCLVQSDEASGCHYGVLTCGSCKVFFKRAVEGQHNYLCAGRNDCIIDKIRRKNCPACRYRKCLQAGMNLEARKTK", "abundance fitness": -0.805}
{"Record Sequence": "KLCLVCSDEASGCHYGVLTCGSCKVFFKRAVEGQHNYLCAGRNDCIIDKIRRKNCPACRYRKCLQAGMNLGARKTK", "abundance fitness": -0.009}
{"Record Sequence": "KLCLVCSDEASGCHYGVLTCGSCKVFFKRAGEGQHNYLCAGRNDCIIDKIRRKNCPACRYRKCLQAGMNLEARKTK", "abundance fitness": -0.036}
{"Record Sequence": "KLCLVCSDEASGCHYGVLTCGSCKVFFKRAVEGQHNYLCAGRNDCIIDKIRRKNCPACRYRKCLQAGMNLEARKTS", "abundance fitness": 0.099}
{"Record Sequence": "KLCLVCSDEASGCHYGVLTCGSCKVFFKRAVEGQHNYLCAGMNDCIIDKIRRKNCPACRYRKCLQAGMNLEARKTK", "abundance fitness": -0.024}
{"Record Sequence": "KLCLVCSDEASGCHYGVLTCGSCKVFFKRAVEGQHNYLCQGRNDCIIDKIRRKNCPACRYRKCLQAGMNLEARKTK", "abundance fitness": 0.012}
{"Record Sequence": "KLCLVCSDEASGCHYGVLTCGSCKVFFKRAVEGQHNYLCAGRNDCIIDKIRRKNCPACRYRKCLQAGMNLEAEKTK", "abundance fitness": -0.015}
{"Record Sequence": "KLCLVCSDEASGCHYGVLTCGSCKVFFKRAVEGQHNYLCAGRNDCIIDKIRRKNCPACRYRKCLQAGMSLEARKTK", "abundance fitness": 0.039}
{"Record Sequence": "KLCLVCSDEASGCHYGVLTCGSCKVFFKRAVEGQHNYLCAGRNDCIIDKIRAKNCPACRYRKCLQAGMNLEARKTK", "abundance fitness": -0.051}
{"Record Sequence": "KLCLVCSDEASGCHYGVFTCGSCKVFFKRAVEGQHNYLCAGRNDCIIDKIRRKNCPACRYRKCLQAGMNLEARKTK", "abundance fitness": -0.002}
{"Record Sequence": "KLCLVCSDEASGCHYGVLTCGSCKVFFKRAVEGQHNYLCAGRNDCIIDKIRRKMCPACRYRKCLQAGMNLEARKTK", "abundance fitness": -0.064}
{"Record Sequence": "KLCLVCSDEASGCHYGVLTCGSCKVFFKRAVEGQHNYLCAGRNDCIIDKICRKNCPACRYRKCLQAGMNLEARKTK", "abundance fitness": -0.215}
